Target: PD-1/PD-L1 interaction (Homo sapiens)
Construct: expressed in transfected cells; host or cells: CHO cells (aAPC-PD-L1) co-cultured with Jurkat cells overexpressing PD-1 and an NFAT-luciferase reporter
Sequence (Q9NZQ7 19-290): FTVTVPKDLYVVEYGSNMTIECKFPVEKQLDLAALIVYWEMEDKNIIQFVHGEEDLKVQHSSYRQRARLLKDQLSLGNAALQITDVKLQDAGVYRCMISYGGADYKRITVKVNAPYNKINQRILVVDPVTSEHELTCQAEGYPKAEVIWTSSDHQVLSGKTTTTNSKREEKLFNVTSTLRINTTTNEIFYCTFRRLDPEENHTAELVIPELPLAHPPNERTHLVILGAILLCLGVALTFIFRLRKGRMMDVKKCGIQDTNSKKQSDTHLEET
Assay: PD-1/PD-L1 NFAT reporter co-culture assay
Assay type: cell-based
Property Measured: EC50

- COc1nc(OCc2cccc(-c3cccc(COc4nc(OC)c(CNCc5cc(O)no5)cc4Cl)c3C)c2C)c(Cl)cc1CNCc1cc(O)no1: ≥ 50 µM

* * *

Biological target: PD-1/PD-L1 (Homo sapiens, UniProt Q9NZQ7)
Sequence (Q9NZQ7 19-238 limits assumed): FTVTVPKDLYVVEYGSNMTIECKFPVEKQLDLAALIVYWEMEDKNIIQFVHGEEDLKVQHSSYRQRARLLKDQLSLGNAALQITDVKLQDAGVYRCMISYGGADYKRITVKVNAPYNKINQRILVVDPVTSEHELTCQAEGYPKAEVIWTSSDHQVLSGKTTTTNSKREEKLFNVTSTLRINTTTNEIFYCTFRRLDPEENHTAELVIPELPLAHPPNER
Test: PD-1/PD-L1 biochemical protein-protein interaction assay (ALPHA)
Details: 0.3 nM His tagged PD-L1, 2.5 nM biotinylated Fc-PD-1, 60 minutes at 25° C., read-out: IC50 PD-L1-PD-1 Alpha IC50-mono PD-L1-fcP-D1
pIC50: −log10 of the molar value.
Property Measured: pIC50

• Cc1c(COc2cc(OCc3cncc(C#N)c3)c(CNC[C@@H](O)CC(N)=O)cc2Cl)cccc1-c1cccc(COc2cc(OCc3cncc(C#N)c3)c(CNC[C@@H](O)CC(N)=O)cc2Cl)c1C [Example 165] = 8.24
• Cc1c(COc2nc(OCc3cncc(C#N)c3)c(CNC[C@H](O)CC(=O)O)cc2Cl)cccc1-c1cccc(COc2nc(OCc3cncc(C#N)c3)c(CNC[C@H](O)CC(=O)O)cc2Cl)c1C [Example 32] = 9.52
• Cc1c(COc2nc(OCC3COC3)c(CNC[C@@H](O)CC(=O)O)cc2Br)cccc1-c1cccc(COc2nc(OCC3COC3)c(CNC[C@@H](O)CC(=O)O)cc2Br)c1C [Example 132] = 9.52
• C[C@@](CO)(NCc1cc(Cl)c(OCc2cccc(-c3cccc(-c4ccc(OCCNCCO)cc4)c3Cl)c2Cl)nc1OCc1cncc(C#N)c1)C(=O)O [Example 340] = 10.06
• C[C@@](CO)(NCc1cc(Br)c(OCc2cccc(-c3cccc(-c4ccc5c(c4)C[C@@H](N)C5)c3Cl)c2Cl)nc1OCc1cncc(C#N)c1)C(=O)O [Example 554] = 9.82
• COc1nc(-c2cccc(-c3cccc(COc4cc(OCc5cncc(C#N)c5)c(CN5CC[C@@H](O)C5)cc4Cl)c3C)c2C)ccc1CNC[C@@H](O)CC(=O)O [Example 307] = 9.27
• Cc1c(COc2cc(OCc3cncc(C#N)c3)c(CNC[C@@H](O)CC(=O)O)cc2Cl)cccc1-c1cccc(-c2ccc3c(CNC[C@@H](O)CC(=O)O)ccnc3c2)c1C [Example 569] = 10.07
• Cc1c(COc2cc(OCc3cncc(C#N)c3)c(CNC[C@@H](O)CC(=O)O)cc2Cl)cccc1-c1cccc(-c2cn3cc(CNC[C@@H](O)CC(=O)O)ccc3n2)c1C [Example 394] = 9.99
• COc1cc(-c2cccc(-c3cccc(-c4ccc(CNC[C@@H](O)CC(=O)O)c(OC)c4)c3C)c2C)ccc1CNC[C@@H](O)CC(=O)O [Example 317] = 9.24
• Cc1cc(OCc2cccc(-c3cccc(COc4cc(C)c(CNC[C@@H](O)CC(=O)O)c(OCc5cncc(C#N)c5)c4)c3C)c2C)cc(OCc2cncc(C#N)c2)c1CNC[C@@H](O)CC(=O)O [Example 246] = 9.00
• COc1nc(OCc2cccc(-c3cccc(COc4ccc(CNCC(O)C(F)(F)C(=O)O)c(OC)n4)c3C)c2C)ccc1CNCC(O)C(F)(F)C(=O)O (stereo not shown) [Example 84] = 9.05
• C[C@@](CO)(NCc1cc(Cl)c(O[C@H]2CCc3c(-c4cccc(-c5ccc(OCCN6CC[C@@H](O)C6)cc5)c4Cl)cccc32)nc1OCc1cncc(C#N)c1)C(=O)O [Example 668] = 10.19
• COc1nc(-c2cccc(-c3cccc(COc4nc(OC)c(CN5CC6(CNC(=O)C6)C5)cc4Cl)c3Cl)c2Cl)ccc1CNC[C@@H]1CCC(=O)N1 [Example 430] = 8.69
• CC(=O)NCCNCc1ccc(-c2cccc(-c3cccc(COc4cc(OCc5cncc(C#N)c5)c(CN[C@@](C)(CO)C(=O)O)cc4Cl)c3C)c2C)cc1 [Example 362] = 9.98
• COc1nc(OCc2cccc(-c3cccc(COc4ccc(CNCCNC(C)=O)c(OC)n4)c3C)c2C)ccc1CNCCNC(C)=O [Example 18] = 7.79
• Cc1c(COc2nc(OCc3cncc(C#N)c3)c(CN[C@@](C)(CO)C(=O)O)cc2Cl)cccc1-c1cccc(-c2ccc3c(c2)CC[C@@]3(CO)N(C)C)c1C [Example 305] = 9.80
• COc1nc(O[C@@H]2c3cccc(-c4cccc5c4C[C@H](F)[C@@H]5Oc4nc(OC)c(CNC[C@@H](O)CC(=O)O)cc4Cl)c3C[C@@H]2F)c(Cl)cc1CNC[C@@H](O)CC(=O)O [Example 640] = 8.96
• Cc1c(COc2cc(OCc3cncc(C#N)c3)c(CN3CC[C@@H](O)C3)cc2Cl)cccc1-c1cccc(-c2ncc(CN3CC[C@@H](O)C3)cn2)c1C [Example 454] = 8.99
• Cc1c(COc2cc(OCc3cncc(C#N)c3)c(CNC[C@@H](O)CC(=O)O)cc2Cl)cccc1-c1cccc(-c2ccc(CN[C@H]3CCCNC3=O)cc2)c1C [Example 572] = 9.37
• COc1nc(-c2cccc(-c3cccc(N4Cc5cc(CNC[C@@H]6CCC(=O)N6)ccc5C4=O)c3Cl)c2Cl)ccc1CNC[C@@H]1CCC(=O)N1 [Example 632] = 9.83
• C[C@@](CO)(NCc1ccc(O[C@H]2CCc3c(-c4cccc(OCCCN5CC[C@@H](O)C5)c4Cl)cccc32)nc1OCc1cncc(C#N)c1)C(=O)O [Example 673] = 9.81
• CN1CCCC1c1ccc(-c2cccc(-c3cccc4c3CC[C@@H]4Oc3nc(OCc4cncc(C#N)c4)c(CN[C@@](C)(CO)C(=O)O)cc3Cl)c2Cl)cc1 (stereo partly shown) [Example 290] = 10.17
